Provenance of the data: patent US12091405B2

Target: IDO1 (Homo sapiens)
Assay: IDO1 Cellular Assay in HeLa Cells Stimulated with IFNγ
Type: cell-based
Conditions: IFNγ 100 ng/mL, 300 uM L-tryptophan, about 48 hours, fluorescence readout, read-out: IDO1 HELA Cell Assay, IC50
Reported pIC50 values follow for various compounds
Units for pIC50: none; it is -log10 of a concentration expressed in mol/L.

// worked examples, pIC50 included
C[C@@H]1CN(C(=O)c2nn(CC(=O)N3CCC(c4ccc(Cl)cc4F)CC3)c3c2CCC3)C[C@H](C)O1
7.08
C[C@@H]1CN(C(=O)c2nn(CC(=O)N3CCC(c4ccccc4OC(F)(F)F)CC3)c3c2CCC3)C[C@H](C)O1
6.75

Specify pIC50 for C[C@@H]1CN(C(=O)c2nn(CC(=O)N3CCC(c4ccccc4)C(F)(F)C3)c3c2CCC3)C[C@H](C)O1 (some centres unmarked) and stop. 6.84

Specify pIC50 for C[C@@H]1CN(C(=O)c2nn(CC(=O)N3CCC(c4cccc5cnccc45)CC3)c3c2CCC3)C[C@H](C)O1 and stop. 6.36

Specify pIC50 for Cc1cccc(C2(F)CCN(C(=O)Cn3nc(C(=O)N4CCC(O)CC4)c4c3CCC4)CC2)c1C and stop. 7.95

Specify pIC50 for C[C@@H]1CN(C(=O)c2nn(CC(=O)N3CCC(c4ccc(F)c(F)c4)CC3)c3c2CCC3)C[C@H](C)O1 and stop. 6.98

Specify pIC50 for C[C@@H]1CN(C(=O)c2nn(CC(=O)N3CCC(c4ccccc4F)CC3)c3c2CCC3)C[C@H](C)O1 and stop. 6.98

Specify pIC50 for Cc1c(C#N)cccc1C1CCN(C(=O)Cn2nc(C(=O)N3C[C@@H](C)O[C@@H](C)C3)c3c2CCC3)CC1 and stop. 7.19

Specify pIC50 for Cc1cccc(C2CCN(C(=O)Cn3nc(C(=O)N4C[C@@H](C)O[C@@H](C)C4)c4c3CCC4)CC2)c1 and stop. 7.80

Specify pIC50 for Cc1cccc(C2CCN(C(=O)Cn3nc(C(=O)N4CC[C@H](O)[C@H](F)C4)c4c3C[C@H]3C[C@@H]43)CC2)c1C and stop. 8.74

Specify pIC50 for Cc1cccc(C2CCN(C(=O)Cn3nc(C(=O)N4CCC(OCCO)CC4)c4c3CCC4)CC2)c1C and stop. 8.96

Specify pIC50 for C[C@@H]1CN(C(=O)c2nn(CC(=O)N3CCC(c4ccccc4C(F)(F)F)CC3)c3c2CCC3)C[C@H](C)O1 and stop. 6.97

Specify pIC50 for Cc1ccc(C2CCN(C(=O)Cn3nc(C(=O)N4C[C@@H](C)O[C@@H](C)C4)c4c3CCC4)CC2)c(C)c1 and stop. 7.52

Specify pIC50 for Cc1cc(Cl)ccc1C1CCN(C(=O)Cn2nc(C(=O)N3C[C@@H](C)O[C@@H](C)C3)c3c2CCC3)CC1 and stop. 7.52

---

Molecular target: IDO1 (Homo sapiens, UniProt P14902)
Sequence (P14902 whole entry): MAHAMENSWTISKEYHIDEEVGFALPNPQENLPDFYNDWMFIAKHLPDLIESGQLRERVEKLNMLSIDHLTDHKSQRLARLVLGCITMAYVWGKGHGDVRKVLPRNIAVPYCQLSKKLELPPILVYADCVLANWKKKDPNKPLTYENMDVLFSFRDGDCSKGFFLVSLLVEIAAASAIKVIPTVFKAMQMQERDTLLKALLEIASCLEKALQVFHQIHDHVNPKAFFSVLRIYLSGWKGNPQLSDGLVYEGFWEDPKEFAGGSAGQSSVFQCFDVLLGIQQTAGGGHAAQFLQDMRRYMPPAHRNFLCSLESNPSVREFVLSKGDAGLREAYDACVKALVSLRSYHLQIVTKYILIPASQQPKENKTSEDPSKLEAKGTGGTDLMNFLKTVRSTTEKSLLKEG
Experiment: IDO1 Human Whole Blood Assay
Assay type: cell-based
Parameters: Human whole blood was drawn in sodium heparin coated tubes from healthy internal donors; from tissue; host or cells: human whole blood from healthy donors, stimulated with LPS and IFNγ
Conditions: LPS and IFNγ 100 ng/mL, overnight (18 h), kynurenine by LC/MS/MS
VALUE TYPE: pIC50
Units for pIC50: none; it is -log10 of a concentration expressed in mol/L.

// worked examples, pIC50 included
Cc1cccc(C2CCN(C(=O)Cn3nc(C(=O)N4CCC(O)CC4)c4c3CCC4)CC2(F)F)c1C (single isomer, unassigned)
5.86
Cc1cccc(C2CCN(C(=O)Cn3nc(C(=O)N4CC[C@H](O)[C@H](F)C4)c4c3CCC4)CC2)c1C [Example 44]
6.14
Cc1cccc(C2CCN(C(=O)Cn3nc(C(=O)N4CCC(O)(CF)CC4)c4c3CCC4)CC2)c1C
7.06
Cc1cccc(C2CCN(C(=O)Cn3nc(C(=O)N4CC[C@H](O)[C@H](C)C4)c4c3C[C@H]3C[C@@H]43)CC2)c1C
7.27

# return pIC50 of Cc1cccc(C2CCN(C(=O)Cn3nc(C(=O)N4CC[C@H](O)[C@H](F)C4)c4c3C[C@H]3C[C@@H]43)CC2)c1C (system: IDO1 (Homo sapiens, UniProt P14902)) 6.59

---

Target: IDO1 (Homo sapiens, UniProt P14902)
Assay: IDO1 Cellular Assay in HeLa Cells Stimulated with IFNγ
Format: cell-based
Conditions: IFNγ 100 ng/mL, 300 uM L-tryptophan, about 48 hours, fluorescence readout, read-out: IDO1 HELA Cell Assay, IC50
VALUE TYPE: pIC50
Units for pIC50: none; it is -log10 of a concentration expressed in mol/L.

// worked examples, pIC50 included
Cc1c(F)cccc1C1CCCN(C(=O)Cn2nc(C(=O)N3C[C@@H](C)O[C@@H](C)C3)c3c2CCC3)C1 (stereo partly shown)
6.63
C[C@@H]1CN(C(=O)c2nn(CC(=O)N3CCC(c4cc(F)c(F)cc4F)CC3)c3c2CCC3)C[C@H](C)O1
6.92
Cc1cccc(C2CCN(C(=O)Cn3nc(C(=O)N4CC[C@@H](O)[C@@H](F)C4)c4c3C[C@H]3C[C@@H]43)CC2)c1C
8.80

Now look at this one.
Specify pIC50 for Cc1cccc(C2CCN(C(=O)Cn3nc(C(=O)N4CC[C@H](O)[C@H](F)C4)c4c3CCC4)CC2)c1C [Example 59] and stop. 8.74

---

Biological target: IDO1 (Homo sapiens)
Assay: IDO1 Cellular Assay in HeLa Cells Stimulated with IFNγ
Assay type: cell-based
Details: IFNγ 100 ng/mL, 300 uM L-tryptophan, about 48 hours, fluorescence readout, read-out: IDO1 HELA Cell Assay, IC50
Rule for this label: Criterion met means IC50 is less than 5 nM; Criterion not met means IC50 is at least 5 nM.

Consider the following illustrative entries.
Cc1ccc(F)cc1C1CCN(C(=O)Cn2nc(C(=O)N3C[C@@H](C)O[C@@H](C)C3)c3c2CCC3)CC1 [Example 98]
Criterion not met
Cc1cccc(C2CCN(C(=O)Cn3nc(C(=O)N4CCC(O)CC4)c4c3CCC4)CC2(F)F)c1C (single isomer, unassigned) [Example 14]
Criterion met
Cc1cccc(C2CCN(C(=O)Cn3nc(C(=O)N4CC[C@@H](O)C4)c4c3CCC4)CC2)c1C [Example 51]
Criterion not met
Cc1cccc(C2CCN(C(=O)Cn3nc(C(=O)N4CC[C@H](O)[C@H](F)C4)c4c3CCC4)CC2)c1C (single isomer, unassigned) [Example 61]
Criterion met
Cc1cccc(C2CCN(C(=O)Cn3nc(C(=O)N4CC[C@H](O)[C@H](F)C4)c4c3CCC4)CC2)c1C [Example 44]
Criterion not met

Take the compound Cc1cccc(C2CCN(C(=O)Cn3nc(C(=O)N4CCC(O)(CF)CC4)c4c3CCCC4)CC2)c1C [Example 36] and say whether its IC50 is less than 5 nM. Criterion met

---

Target: UniProtKB P14902
Assay: IDO1 Cellular Assay in HeLa Cells Stimulated with IFNγ
Assay type: cell-based
Details: IFNγ 100 ng/mL, 300 uM L-tryptophan, about 48 hours, fluorescence readout, read-out: IDO1 HELA Cell Assay, IC50
pIC50: −log10 of the molar value.
Binary call on pIC50: true from 7 upward, false beneath that.

Consider the following illustrative entries.
Cc1cc(C2CCN(C(=O)Cn3nc(C(=O)N4C[C@@H](C)O[C@@H](C)C4)c4c3CCC4)CC2)ccc1F
true
C[C@@H]1CN(C(=O)c2nn(CC(=O)N3CCC(c4ccc(Cl)cc4)CC3)c3c2CCC3)C[C@H](C)O1
true
Cc1c(C2CCN(C(=O)Cn3nc(C(=O)N4CCC(O)(CF)CC4)c4c3C[C@H]3C[C@@H]43)CC2)cccc1C(F)(F)F
true
COc1ccc(Cl)cc1C1CCN(C(=O)Cn2nc(C(=O)N3C[C@@H](C)O[C@@H](C)C3)c3c2CCC3)CC1
false
Cc1ccc(C2CCN(C(=O)Cn3nc(C(=O)N4C[C@@H](C)O[C@@H](C)C4)c4c3CCC4)CC2)cc1Cl
true

Now for another entry.
# bool: pIC50 of Cc1cccc(C2CCN(C(=O)Cn3nc(C(=O)N4CC[C@@H](O)[C@@H](F)C4)c4c3C[C@@H]3C[C@H]43)CC2)c1C >= 7 true

---

Target: IDO1 (Homo sapiens)
Assay: IDO1 Cellular Assay in HeLa Cells Stimulated with IFNγ
Format: cell-based
Conditions: IFNγ 100 ng/mL, 300 uM L-tryptophan, about 48 hours, fluorescence readout, read-out: IDO1 HELA Cell Assay, IC50
Reported log10(IC50) values follow for various molecules
Values below are the log10 of the recorded IC50, with µM as the unit.

Cc1ccc(F)c(C2CCN(C(=O)Cn3nc(C(=O)N4C[C@@H](C)O[C@@H](C)C4)c4c3CCC4)CC2)c1 [Example 119]
-1.28
Cc1ccnc(C2CCN(C(=O)Cn3nc(C(=O)N4C[C@@H](C)O[C@@H](C)C4)c4c3CCC4)CC2)c1C [Example 80]
-1.13
Cc1c(F)ccc(C2CCN(C(=O)Cn3nc(C(=O)N4C[C@@H](C)O[C@@H](C)C4)c4c3CCC4)CC2)c1C [Example 172]
-2.77
C[C@@H]1CN(C(=O)c2nn(CC(=O)N3CCC(c4cc(F)c(F)cc4Cl)CC3)c3c2CCC3)C[C@H](C)O1 [Example 154]
-0.85

Specify log10(IC50) for Cc1cccc(F)c1C1CCN(C(=O)Cn2nc(C(=O)N3C[C@@H](C)O[C@@H](C)C3)c3c2CCC3)CC1 [Example 158] and stop. -0.82

Specify log10(IC50) for Cc1c(F)cccc1C1CCN(C(=O)Cn2nc(C(=O)N3C[C@@H](C)O[C@@H](C)C3)c3c2CCC3)CC1 [Example 173] and stop. -2.19
